Values from ChEMBL document CHEMBL1165943

Test system: HOP-62
Assay: Cytotoxicity against human HOP62 cells assessed as cell growth at 10 uM
Type: functional
Details: Homo sapiens, HOP-62; read-out: Activity
# key: entry, value: growth at 10 µM
Give the value in % but do not write % after it.

smiles.code	growth at 10 µM (%)
Cc1ccc(Nc2nc(C)cc(-c3cccnc3)n2)c(C)c1	111
CC(=O)c1ccccc1-c1ccc(-c2ccnc(NC(=O)Nc3cc(N4CCOCC4)cc(C(F)(F)F)c3)n2)cn1	7.86
CC(=O)c1ccc(-c2ccc(-c3ccnc(Nc4cc(C(F)(F)F)cc(C(F)(F)F)c4)n3)cn2)cc1	112
Cc1cc(-c2cccnc2)nc(NC(=O)c2cccc(C(F)(F)F)c2)n1	106
FC(F)(F)c1cc(Nc2nccc(-c3ccc(-c4ccccc4)nc3)n2)cc(C(F)(F)F)c1	110

// switching to the query compound
Quick one: growth at 10 µM for CC(=O)Nc1cccc(-c2ccc(-c3ccnc(NC(=O)Nc4cc(C(F)(F)F)cc(C(F)(F)F)c4)n3)cn2)c1.Cl ?
-3.2

* * *

# key: entry, value: growth at 10 µM
Tested on: HCT-15
Experiment: Cytotoxicity against human HCT15 cells assessed as cell growth at 10 uM
Assay type: functional
Settings: Homo sapiens, HCT-15; read-out: Activity
Give the value in % but do not write % after it.

Known results for compounds:
smiles.code	measured.property	recorded.number
CC(=O)c1ccccc1-c1ccc(-c2ccnc(NC(=O)Nc3cc(N4CCOCC4)cc(C(F)(F)F)c3)n2)cn1	growth at 10 µM	84.2
FC(F)(F)c1cc(Nc2nccc(-c3cccnc3)n2)cc(C(F)(F)F)c1	growth at 10 µM	92.7
FC(F)(F)c1cc(Nc2nccc(-c3ccc(Nc4ccccc4)nc3)n2)cc(C(F)(F)F)c1	growth at 10 µM	97.4
CC(=O)c1ccc(-c2ccc(-c3ccnc(Nc4cc(C(F)(F)F)cc(C(F)(F)F)c4)n3)cn2)cc1	growth at 10 µM	110
c1ccc(-c2ccc(-c3ccnc(Nc4ccc(N(c5ccccc5)c5ccccc5)cc4)n3)cn2)cc1	growth at 10 µM	102
O=C(Nc1cc(C(F)(F)F)cc(C(F)(F)F)c1)Nc1nccc(-c2ccc(Nc3ccccc3)nc2)n1	growth at 10 µM	108
CC(=O)c1ccccc1-c1ccc(-c2ccnc(NC(=O)Nc3cc(C(F)(F)F)cc(C(F)(F)F)c3)n2)cn1	growth at 10 µM	93.2

Quick one: growth at 10 µM for CC(=O)Nc1cccc(-c2ccc(-c3ccnc(NC(=O)Nc4cc(C(F)(F)F)cc(C(F)(F)F)c4)n3)cn2)c1.Cl ?
60.3

* * *

Tested on: SF-539
Test: Cytotoxicity against human SF539 cells assessed as cell growth at 10 uM
Format: functional
Conditions: Homo sapiens, SF-539; read-out: Activity
# key: entry, value: growth at 10 µM
Give the value in % but do not write % after it.

Known results for compounds:
smiles.code	unit.spec	recorded.number
CC(=O)Nc1cccc(-c2ccc(-c3ccnc(NC(=O)Nc4cc(C(F)(F)F)cc(C(F)(F)F)c4)n3)cn2)c1.Cl	%	75.6
c1ccc(-c2ccc(-c3ccnc(Nc4ccc(N(c5ccccc5)c5ccccc5)cc4)n3)cn2)cc1	%	84.2
FC(F)(F)c1cc(Nc2nccc(-c3ccc(-c4ccccc4)nc3)n2)cc(C(F)(F)F)c1	%	95.8
CC(=O)c1ccc(-c2ccc(-c3ccnc(Nc4cc(C(F)(F)F)cc(C(F)(F)F)c4)n3)cn2)cc1	%	89.7

// switching to the query compound
For SF-539, provide growth at 10 µM of O=C(Nc1cc(C(F)(F)F)cc(C(F)(F)F)c1)Nc1nccc(-c2ccc(Nc3ccccc3)nc2)n1 please.
96.4
